Molecular target: T1, orthogonal hCD122 receptor (hoRb), hCD122 with H133D and Y134F (human, UniProt P14784 27-550); further: reference of the scale not given here
T1 sequence: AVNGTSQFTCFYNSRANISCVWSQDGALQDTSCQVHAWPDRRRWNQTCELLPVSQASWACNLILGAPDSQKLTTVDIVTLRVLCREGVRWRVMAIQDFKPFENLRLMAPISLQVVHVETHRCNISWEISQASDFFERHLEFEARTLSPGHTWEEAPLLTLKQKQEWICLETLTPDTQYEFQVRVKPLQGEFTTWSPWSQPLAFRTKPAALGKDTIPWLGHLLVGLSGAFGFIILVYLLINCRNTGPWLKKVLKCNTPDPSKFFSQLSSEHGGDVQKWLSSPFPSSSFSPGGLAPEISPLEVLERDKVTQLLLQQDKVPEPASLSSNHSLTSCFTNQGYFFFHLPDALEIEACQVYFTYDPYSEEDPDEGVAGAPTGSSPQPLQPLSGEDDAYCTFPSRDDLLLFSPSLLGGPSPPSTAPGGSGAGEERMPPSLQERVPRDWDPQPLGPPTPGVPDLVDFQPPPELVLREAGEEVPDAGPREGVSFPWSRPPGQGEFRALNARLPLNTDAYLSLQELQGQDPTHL
Assay: cell-based or functional assay
measured metric: Relative Proliferation Fold Change 3F8 1:50 (fold)
Give just the numeric value; fold need not be written.

# example entries with known answers
INSERT INTO measurements (binder, unit_abbreviation, measured_number) VALUES
  ('M39L, SQVLKA (ligand) APTSSSTKKTQLQLSQLLVLLKAILNGINNYKNPKLTRLLTFKFYMPKKATELKHLQCLEEELKPLEEVLNLAQSKNFHLRPRDLISNINVIVLELKGSETTFMCEYADETATIVEFLNRWITFCQSIISTLT', 'fold', 37.1),
  ('SQVLKL (ligand) APTSSSTKKTQLQLSQLLVLLKLILNGINNYKNPKLTRMLTFKFYMPKKATELKHLQCLEEELKPLEEVLNLAQSKNFHLRPRDLISNINVIVLELKGSETTFMCEYADETATIVEFLNRWITFCQSIISTLT', 'fold', 5.43),
  ('T3K, SQVLKA (ligand) APKSSSTKKTQLQLSQLLVLLKAILNGINNYKNPKLTRMLTFKFYMPKKATELKHLQCLEEELKPLEEVLNLAQSKNFHLRPRDLISNINVIVLELKGSETTFMCEYADETATIVEFLNRWITFCQSIISTLT', 'fold', 9.24),
  ('I86V, SQVLKA (ligand) APTSSSTKKTQLQLSQLLVLLKAILNGINNYKNPKLTRMLTFKFYMPKKATELKHLQCLEEELKPLEEVLNLAQSKNFHLRPRDLVSNINVIVLELKGSETTFMCEYADETATIVEFLNRWITFCQSIISTLT', 'fold', 3.66),
  ('Q126C, SQVLKA (ligand) APTSSSTKKTQLQLSQLLVLLKAILNGINNYKNPKLTRMLTFKFYMPKKATELKHLQCLEEELKPLEEVLNLAQSKNFHLRPRDLISNINVIVLELKGSETTFMCEYADETATIVEFLNRWITFCCSIISTLT', 'fold', 1.4);

SQVLKS (ligand) APTSSSTKKTQLQLSQLLVLLKSILNGINNYKNPKLTRMLTFKFYMPKKATELKHLQCLEEELKPLEEVLNLAQSKNFHLRPRDLISNINVIVLELKGSETTFMCEYADETATIVEFLNRWITFCQSIISTLT yielded Relative Proliferation Fold Change 3F8 1:50 of 24.2

SQVLLA (ligand) APTSSSTKKTQLQLSQLLVLLLAILNGINNYKNPKLTRMLTFKFYMPKKATELKHLQCLEEELKPLEEVLNLAQSKNFHLRPRDLISNINVIVLELKGSETTFMCEYADETATIVEFLNRWITFCQSIISTLT yielded Relative Proliferation Fold Change 3F8 1:50 of 4.68

Q74S, SQVLKA (ligand) APTSSSTKKTQLQLSQLLVLLKAILNGINNYKNPKLTRMLTFKFYMPKKATELKHLQCLEEELKPLEEVLNLASSKNFHLRPRDLISNINVIVLELKGSETTFMCEYADETATIVEFLNRWITFCQSIISTLT yielded Relative Proliferation Fold Change 3F8 1:50 of 33.8

T3N, SQVLKA (ligand) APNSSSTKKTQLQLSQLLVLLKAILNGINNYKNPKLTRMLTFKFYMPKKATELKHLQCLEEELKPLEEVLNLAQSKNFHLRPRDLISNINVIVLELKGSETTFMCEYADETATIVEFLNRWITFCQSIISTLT yielded Relative Proliferation Fold Change 3F8 1:50 of 4.1

T3A, SQVLKA (ligand) APASSSTKKTQLQLSQLLVLLKAILNGINNYKNPKLTRMLTFKFYMPKKATELKHLQCLEEELKPLEEVLNLAQSKNFHLRPRDLISNINVIVLELKGSETTFMCEYADETATIVEFLNRWITFCQSIISTLT yielded Relative Proliferation Fold Change 3F8 1:50 of 8.68

Q126I, SQVLKA (ligand) APTSSSTKKTQLQLSQLLVLLKAILNGINNYKNPKLTRMLTFKFYMPKKATELKHLQCLEEELKPLEEVLNLAQSKNFHLRPRDLISNINVIVLELKGSETTFMCEYADETATIVEFLNRWITFCISIISTLT yielded Relative Proliferation Fold Change 3F8 1:50 of 8.69

SQVLNA (ligand) APTSSSTKKTQLQLSQLLVLLNAILNGINNYKNPKLTRMLTFKFYMPKKATELKHLQCLEEELKPLEEVLNLAQSKNFHLRPRDLISNINVIVLELKGSETTFMCEYADETATIVEFLNRWITFCQSIISTLT yielded Relative Proliferation Fold Change 3F8 1:50 of 25.8

Q126G, SQVLKA (ligand) APTSSSTKKTQLQLSQLLVLLKAILNGINNYKNPKLTRMLTFKFYMPKKATELKHLQCLEEELKPLEEVLNLAQSKNFHLRPRDLISNINVIVLELKGSETTFMCEYADETATIVEFLNRWITFCGSIISTLT yielded Relative Proliferation Fold Change 3F8 1:50 of 1.14

T3D, SQVLKA (ligand) APDSSSTKKTQLQLSQLLVLLKAILNGINNYKNPKLTRMLTFKFYMPKKATELKHLQCLEEELKPLEEVLNLAQSKNFHLRPRDLISNINVIVLELKGSETTFMCEYADETATIVEFLNRWITFCQSIISTLT yielded Relative Proliferation Fold Change 3F8 1:50 of 19
